target_under_test: D(2) dopamine receptor (Rattus norvegicus)
test_method_notes: Inhibitory activity against Dopamine receptor D2 of rat limbic tissue at 1 uM
Assay type: tissue-based
condition_set: Limbic system
experimental_endpoint: inhibition (%)
Form entry: value (%) — number only.

Q) Query (compound): COc1ccccc1N1CCN(CCOC(=O)CC23C[C@H]4C[C@@H](C2)C[C@](C)(C4)C3)CC1 ; field requested: inhibition
A) 97

Q) Find the recorded inhibition belonging to C[C@@H](CN1CCN(c2ncccn2)CC1)NC(=O)C12C[C@H]3C[C@@H](C1)C[C@@H](C2)C3 and report it.
A) 1

Q) Please give the measured inhibition for this compound: O=C(NCCCN1CCN(c2ncccn2)CC1)NC12CC3CC(CC1C3)C2
A) 6

Q) Fill in the blank: the reported inhibition of C[C@@]12C[C@@H]3C[C@@H](CC(CC(=O)OCCN4CCN(c5ncccn5)CC4)(C3)C1)C2 is ____.
A) 39

Q) Quick one: inhibition of C[C@@]12C[C@@H]3C[C@@H](CC(CC(=O)OCCN4CCN(c5cccc(C(F)(F)F)c5)CC4)(C3)C1)C2 ?
A) 29

====

target_under_test: UniProt P61169
Sequence (P61169 whole entry): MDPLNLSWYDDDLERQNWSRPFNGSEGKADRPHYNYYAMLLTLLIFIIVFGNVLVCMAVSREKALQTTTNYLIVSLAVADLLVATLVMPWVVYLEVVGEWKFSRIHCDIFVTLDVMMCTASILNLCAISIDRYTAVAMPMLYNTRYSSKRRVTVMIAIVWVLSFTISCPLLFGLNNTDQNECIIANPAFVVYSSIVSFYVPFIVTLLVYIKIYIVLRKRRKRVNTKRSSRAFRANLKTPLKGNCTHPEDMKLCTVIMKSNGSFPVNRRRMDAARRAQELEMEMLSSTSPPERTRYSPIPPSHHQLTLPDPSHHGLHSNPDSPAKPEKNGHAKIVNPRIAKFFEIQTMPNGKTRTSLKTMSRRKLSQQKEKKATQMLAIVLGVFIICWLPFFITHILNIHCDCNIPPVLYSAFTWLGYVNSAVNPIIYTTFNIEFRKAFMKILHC
test_method_notes: Inhibitory activity against Dopamine receptor D2 of rat limbic tissue at 1 uM
Type: tissue-based
condition_set: Limbic system
Think of 90% as a floor: if inhibition stands on it or above, it is y; beneath it, n.

Q) Assess whether reported inhibition for COc1ccccc1N1CCN(CCCOC(=O)C23CC4C[C@@H](C[C@H]2C4)C3)CC1 sits at 90% or higher.
A) y

Q) Reported inhibition reaches at least 90% for COc1ccccc1N1CCN(CCOC(=O)C23CC4C[C@@H](C[C@H]2C4)C3)CC1 ?
A) y

Q) Please check the record C[C@H](CN1CCN(Cc2ccccc2)CC1)NC(=O)C12C[C@H]3C[C@@H](C1)C[C@@H](C2)C3 and state if its inhibition is at or above 90%.
A) n

Q) # check: inhibition of O=C(OCCN1CCN(c2ncccn2)CC1)C12CC3CC(CC1C3)C2 is greater than or equal to 90%
A) n

Q) In plain terms: is recorded inhibition at least 90% for O=C(OCCCN1CCN(c2cccc(Cl)c2)CC1)C12C[C@H]3C[C@@H](C1)C[C@@H](C2)C3 ?
A) n

Q) Does the reported inhibition for COc1ccccc1N1CCN(CCCOC(=O)CC23C[C@H]4C[C@@H](C2)C[C@](C)(C4)C3)CC1 fall at or above the 90% mark?
A) y

Q) API: above_or_equal(metric=inhibition, cutoff=90%) for item Cl.Cl.O=C(NCCCN1CCN(c2cccc(Cl)c2)CC1)C12CC3CC(CC1C3)C2
A) n

Q) Please tell me: is the compound Cl.Cl.O=C(NCCN1CCN(c2cccc(Cl)c2)CC1)C12CC3CC(CC1C3)C2 at or over 90% in terms of inhibition?
A) y

Q) Has O=C(OCCCN1CCN(c2cccc(C(F)(F)F)c2)CC1)C12C[C@H]3C[C@@H](C1)C[C@@H](C2)C3 a recorded inhibition greater than or equal to 90%?
A) n

====

For each of the molecules below, state its inhibition.
target_under_test: UniProtKB P61169
test_method_notes: Inhibitory activity against rat limbic tissue Dopamine receptor D2 at 1 uM concentration
Type: tissue-based
condition_set: Limbic system
Expressed in %, but write only the number.

Q) Please state recorded inhibition (tested on UniProtKB P61169) of COc1ccccc1N1CCN(CCNC(=O)C23CC4C[C@@H](C[C@H]2C4)C3)CC1.Cl.Cl
A) 100

Q) Provide the documented inhibition with UniProtKB P61169 as the system for COc1ccccc1N1CCN(CCNC(=O)NC23C[C@H]4C[C@@H](C2)C[C@@H](C3)C4)CC1
A) 94

Q) Hello, I am looking for reported inhibition with UniProtKB P61169 for COc1ccccc1N1CCN(CCNC(=O)CC23C[C@H]4C[C@@H](C2)C[C@](C)(C4)C3)CC1 . Could you help?
A) 70

Q) Lookup: inhibition / UniProtKB P61169 / COc1ccccc1N1CCN(CCCNC(=O)C23CC4C[C@@H](C[C@H]2C4)C3)CC1.Cl.Cl
A) 72

Q) Form entry - test system: UniProtKB P61169; read-out: inhibition; molecule: COc1ccccc1N1CCN(CCCNC(=O)CC23C[C@H]4C[C@@H](C2)C[C@](C)(C4)C3)CC1
A) 79

====

target_under_test: Serotonin 2 (5-HT2) receptor (Rattus norvegicus, UniProt P30994+P08909+P14842)
test_method_notes: Inhibitory activity against rat cortical 5-hydroxytryptamine 2 receptor
Assay type: protein assay
Please note: Ki exactly at 300 nM is no (0). Only values below 300 nM get yes (1).

Q) # check: Ki < 300 nM for C[C@H](CN1CCN(c2ncccn2)CC1)NC(=O)C12C[C@H]3C[C@@H](C1)C[C@@H](C2)C3
A) no (0)

Q) Please state whether Ki is below 300 nM for COc1ccccc1N1CCN(CCNC(=O)C23CC4C[C@@H](C[C@H]2C4)C3)CC1.Cl.Cl
A) yes (1)

Q) Lab note: Ki threshold 300 nM. Does this compound come in strictly under it? COc1ccccc1N1CCN(CCNC(=O)C23C[C@H]4C[C@@H](C2)C[C@@H](C3)C4)CC1.Cl.Cl
A) yes (1)

Q) Consider COc1ccccc1N1CCN(CCNC(=O)NC23C[C@H]4C[C@@H](C2)C[C@@H](C3)C4)CC1 . Does its Ki lie strictly below 300 nM?
A) yes (1)

Q) Lab note: confirm whether the reported Ki for this compound is below 300 nM, equality not counting. compound: Cl.Cl.O=C(NCCCN1CCN(c2ncccn2)CC1)NC12C[C@H]3C[C@@H](C1)C[C@@H](C2)C3
A) no (0)

Q) hey, is Ki for Cl.Cl.Cl.O=C(CCN1CCN(c2ncccn2)CC1)NC12C[C@H]3C[C@@H](C1)C[C@@H](C2)C3 lower than 300 nM or not?
A) yes (1)

Q) Here's an entry: Cl.Cl.O=C(NCCN1CCN(c2cccc(Cl)c2)CC1)C12CC3CC(CC1C3)C2 . Is its Ki below 300 nM?
A) yes (1)

Q) For O=C(NCCN1CCN(c2ncccn2)CC1)NC12C[C@H]3C[C@@H](C1)C[C@@H](C2)C3 , is the recorded Ki below the cut-off of 300 nM?
A) yes (1)

====

target_under_test: UniProt P19327
Sequence (whole entry): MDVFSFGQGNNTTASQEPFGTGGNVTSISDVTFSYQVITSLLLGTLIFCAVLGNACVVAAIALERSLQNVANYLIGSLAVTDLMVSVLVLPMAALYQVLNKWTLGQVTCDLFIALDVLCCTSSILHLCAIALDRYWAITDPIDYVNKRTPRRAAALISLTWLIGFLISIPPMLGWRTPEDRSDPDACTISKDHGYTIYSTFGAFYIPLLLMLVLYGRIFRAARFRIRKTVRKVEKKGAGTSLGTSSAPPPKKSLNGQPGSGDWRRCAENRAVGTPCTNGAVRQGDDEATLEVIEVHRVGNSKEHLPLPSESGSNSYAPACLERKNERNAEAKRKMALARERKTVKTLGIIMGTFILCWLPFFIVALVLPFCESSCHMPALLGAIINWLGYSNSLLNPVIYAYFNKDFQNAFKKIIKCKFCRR
test_method_notes: Inhibitory activity against 5-hydroxytryptamine 1A receptor of rat hippocampal tissue at 0.1 uM
condition_set: Hippocampus
experimental_endpoint: inhibition

Q) Please give the measured inhibition for this compound: O=C(NC12C[C@H]3C[C@@H](C1)C[C@@H](C2)C3)OCCN1CCN(c2ncccn2)CC1
A) 34%

Q) # inhibition lookup, item Cc1cccc(N2CCN(C[C@@H](C)NC(=O)C34C[C@H]5C[C@@H](C3)C[C@@H](C4)C5)CC2)c1C
A) 0%

Q) Quick one: inhibition of O=C(NCCCN1CCN(c2ncccn2)CC1)NC12CC3CC(CC1C3)C2 ?
A) 69%

Q) Give the measured inhibition of Cc1cccc(N2CCN(C[C@H](C)NC(=O)C34C[C@H]5C[C@@H](C3)C[C@@H](C4)C5)CC2)c1C .
A) 0%

Q) Item O=C(OCCCN1CCN(c2ncccn2)CC1)C12CC3C[C@@H](C[C@H]1C3)C2 has what recorded inhibition?
A) 12%

Q) For C[C@@H](CN1CCN(Cc2ccccc2)CC1)NC(=O)C12C[C@H]3C[C@@H](C1)C[C@@H](C2)C3 , what is its reported inhibition?
A) 0%

====

target_under_test: 5-hydroxytryptamine receptor 1A (Rattus norvegicus)
Sequence (P19327 whole entry): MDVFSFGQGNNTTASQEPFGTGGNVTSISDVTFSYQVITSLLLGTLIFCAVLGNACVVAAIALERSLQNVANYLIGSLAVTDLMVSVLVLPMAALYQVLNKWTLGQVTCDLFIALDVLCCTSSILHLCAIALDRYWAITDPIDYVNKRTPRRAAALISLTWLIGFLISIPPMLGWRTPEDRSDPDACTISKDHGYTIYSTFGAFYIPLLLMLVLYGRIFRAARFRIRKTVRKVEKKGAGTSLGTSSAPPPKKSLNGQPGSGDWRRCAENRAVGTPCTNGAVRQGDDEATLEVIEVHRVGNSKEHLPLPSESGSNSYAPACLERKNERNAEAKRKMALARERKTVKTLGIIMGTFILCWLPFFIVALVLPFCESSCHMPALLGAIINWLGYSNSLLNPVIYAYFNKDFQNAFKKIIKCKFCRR
test_method_notes: Antagonist activity against rat hippocampal tissue 5-hydroxytryptamine 1A receptor
Assay type: functional, tissue-based, Hippocampus
experimental_endpoint: Ki (nM)
Just the number please, in nM, no unit attached.

Q) Which measured Ki value corresponds to COc1ccccc1N1CCN(CCCNC(=O)CC23C[C@H]4C[C@@H](C2)C[C@](C)(C4)C3)CC1 ?
A) 4.4

Q) Fill blank: measured Ki of the compound COc1ccccc1N1CCN(CCCNC(=O)C23C[C@H]4C[C@@H](C2)C[C@@H](C3)C4)CC1.Cl.Cl is ____.
A) 1

Q) Reported Ki for COc1ccccc1N1CCN(CCOC(=O)C23C[C@H]4C[C@@H](C2)C[C@@H](C3)C4)CC1.Cl.Cl : what is it?
A) 2.5

Q) Requested field: Ki. Item: COc1ccccc1N1CCN(CCCOC(=O)C23C[C@H]4C[C@@H](C2)C[C@@H](C3)C4)CC1.Cl.Cl
A) 8.5

Q) May I ask what Ki has been recorded for Cl.Cl.O=C(NCCCN1CCN(c2cccc(Cl)c2)CC1)C12CC3CC(CC1C3)C2 ?
A) 10

Q) Entry C[C@@]12C[C@@H]3C[C@@H](CC(CC(=O)NCCN4CCN(c5cccc(Cl)c5)CC4)(C3)C1)C2 : reported Ki = ?
A) 38

Q) Given the compound Cl.Cl.O=C(N[C@H](Cc1ccccc1)CN1CCN(Cc2ccccc2)CC1)C12C[C@H]3C[C@@H](C1)C[C@@H](C2)C3 , what is its reported Ki?
A) 2.3

Q) Could you tell me which Ki is on file for COc1ccccc1N1CCN(CCCNC(=O)C23CC4C[C@@H](C[C@H]2C4)C3)CC1.Cl.Cl ?
A) 3.3

Q) Entry O=C(N[C@H](COCc1ccccc1)CN1CCN(Cc2ccccc2)CC1)C12C[C@H]3C[C@@H](C1)C[C@@H](C2)C3 has what Ki?
A) 62

Q) Find the recorded Ki belonging to Cl.Cl.O=C(NCCCN1CCN(c2ncccn2)CC1)C12C[C@H]3C[C@@H](C1)C[C@@H](C2)C3 and report it.
A) 89

Q) Recorded Ki for Cl.Cl.O=C(NCCCN1CCN(c2ncccn2)CC1)NC12C[C@H]3C[C@@H](C1)C[C@@H](C2)C3 , please?
A) 7

Q) Which value of Ki has been reported for O=C(NCCN1CCN(c2cccc(Cl)c2)CC1)NC12C[C@H]3C[C@@H](C1)C[C@@H](C2)C3 in the records?
A) 61

Q) Which Ki value belongs to Cl.Cl.Cl.O=C(CCN1CCN(c2ncccn2)CC1)NC12C[C@H]3C[C@@H](C1)C[C@@H](C2)C3 ?
A) 131

Q) Find the recorded Ki belonging to O=C(NCCN1CCN(Cc2ccccc2)CC1)C12C[C@H]3C[C@@H](C1)C[C@@H](C2)C3 and report it.
A) 46

Q) Which Ki value belongs to C[C@H](CN1CCN(c2ncccn2)CC1)NC(=O)C12C[C@H]3C[C@@H](C1)C[C@@H](C2)C3 ?
A) 1.1
